target: farnesyl protein transferase (Homo sapiens, UniProt P49354+P49356); assay: In vitro assay for inhibition of farnesyl protein transferase; format: biochemical; conditions: negative log value of the IC50-value; IC50 = concentration needed to reduce the product of the enzymatic reaction to 50% of the control; read-out: Enzyme activity pIC50 (converted)
Values of IC50 strictly less than 6 nM map to TRUE, and values of at least 6 nM map to FALSE.

Task item: State whether 6 nM exceeds IC50 recorded for Cn1cnnc1C(O)(c1ccc(Cl)cc1)c1cc2c3c(c1)c(-c1cccc(Cl)c1)cc(=O)n3CCC2 (centres unmarked) .
Reply: FALSE

Task item: Could you do the same for Cn1cnnc1C(N)(c1ccc(F)cc1)c1cc2c3c(c1)c(-c1cccc(Cl)c1)cc(=O)n3CC2 (centres unmarked) , please?
Reply: TRUE

Task item: Try the molecule Cn1cnnc1C(OCCO)(c1ccc(F)cc1)c1cc2c3c(c1)c(-c1cccc(Cl)c1)cc(=O)n3CC2 (centres unmarked)
Reply: TRUE

Task item: Now this one: CC(=O)NC(c1ccc(F)cc1)(c1cc2c3c(c1)c(-c1cccc(Cl)c1)cc(=O)n3CC2)c1nncn1C (centres unmarked)
Reply: TRUE

Task item: Now this one: Cn1cnnc1C(c1ccc(I)cc1)c1cc2c3c(c1)c(-c1cccc(Cl)c1)cc(=O)n3CC2 (centres unmarked)
Reply: FALSE

Task item: Now consider Cn1cnnc1C(O)(c1ccc(F)cc1)c1cc2c3c(c1)c(-c1cccc(Cl)c1)cc(=O)n3CC2 (centres unmarked) .
Reply: TRUE

Task item: Next entry: COC(c1ccc(F)cc1)(c1cc2c3c(c1)c(-c1cccc(Cl)c1)cc(=O)n3CC2)c1nncn1C (centres unmarked)
Reply: FALSE

Task item: Cn1cnnc1C(O)(c1ccc(Cl)cc1)c1cc2c3c(c1)c(-c1cccc(Cl)c1)c(Br)c(=O)n3CC2 (centres unmarked) , same question.
Reply: FALSE
